Would you kindly list pIC50 for each of these molecules?
target: CK1δ (Homo sapiens (Human)); assay: LanthaScreen Eu kinase binding assay, CK1δ; details: read-out: CK1δ IC50 ± SEM
Sequence (P48730 whole entry): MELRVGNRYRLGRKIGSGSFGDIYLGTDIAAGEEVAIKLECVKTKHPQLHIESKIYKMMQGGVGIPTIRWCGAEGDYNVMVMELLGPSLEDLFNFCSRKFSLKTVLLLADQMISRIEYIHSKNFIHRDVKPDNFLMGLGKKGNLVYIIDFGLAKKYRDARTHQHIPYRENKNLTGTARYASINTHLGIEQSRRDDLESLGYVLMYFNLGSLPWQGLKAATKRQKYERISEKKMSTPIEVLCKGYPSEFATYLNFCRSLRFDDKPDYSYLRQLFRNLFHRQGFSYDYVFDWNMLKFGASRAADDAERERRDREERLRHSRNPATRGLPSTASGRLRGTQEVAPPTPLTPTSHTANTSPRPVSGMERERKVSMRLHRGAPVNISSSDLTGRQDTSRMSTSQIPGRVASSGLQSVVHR
Recall that pIC50 is obtained by taking minus log10 of the concentration measured in molar.

**Query** Recorded pIC50 for Cc1cccc(-c2nc(-c3c(F)cccc3F)[nH]c2-c2ccncc2)c1 [IM-26] , please?
**Result** 7.11

**Query** Sample Fc1ccc(-c2nc(-c3c(F)cccc3F)[nH]c2-c2ccncc2)cc1 [IM-31] — what was its pIC50?
**Result** 8.17

**Query** # pIC50 lookup, item Cc1cccc(-c2nc(-c3ccc4ccccc4c3F)[nH]c2-c2ccncc2)c1 [IM-04]
**Result** 6.31

**Query** Consider the molecule Fc1ccc(-c2nc(-c3ccccc3F)[nH]c2C2=CCOCC2)cc1 [IM-20] and give its measured pIC50.
**Result** 5.82

**Query** I am curious: what pIC50 value has been reported for Oc1ccc(-c2nc(-c3ccc(F)cc3)c(-c3ccncc3)[nH]2)cc1 [SB202190, reference compound] ?
**Result** 7.28

**Query** For the molecule shown here, Cc1cccc(-c2nc(-c3ccc([S+](C)[O-])cc3)[nH]c2-c2ccncc2)c1 (stereo not shown) [IM-28] , give the reported pIC50.
**Result** 6.15

**Query** pIC50 lookup needed for Cc1cccc(-c2nc(-c3ccc(C(N)=O)cc3)[nH]c2-c2ccncc2)c1 [IM-39] , thanks.
**Result** 6.10
